Target: PRMT5-MEP50 enzyme (Homo sapiens)
Construct: One virus expresses full length human PRMT5 with Flag-tag at N-terminus; Flag (N); purchased Charles River (Argenta); host or cells: insect cells (Sf9), baculovirus co-infection
Sequence (O14744 whole entry): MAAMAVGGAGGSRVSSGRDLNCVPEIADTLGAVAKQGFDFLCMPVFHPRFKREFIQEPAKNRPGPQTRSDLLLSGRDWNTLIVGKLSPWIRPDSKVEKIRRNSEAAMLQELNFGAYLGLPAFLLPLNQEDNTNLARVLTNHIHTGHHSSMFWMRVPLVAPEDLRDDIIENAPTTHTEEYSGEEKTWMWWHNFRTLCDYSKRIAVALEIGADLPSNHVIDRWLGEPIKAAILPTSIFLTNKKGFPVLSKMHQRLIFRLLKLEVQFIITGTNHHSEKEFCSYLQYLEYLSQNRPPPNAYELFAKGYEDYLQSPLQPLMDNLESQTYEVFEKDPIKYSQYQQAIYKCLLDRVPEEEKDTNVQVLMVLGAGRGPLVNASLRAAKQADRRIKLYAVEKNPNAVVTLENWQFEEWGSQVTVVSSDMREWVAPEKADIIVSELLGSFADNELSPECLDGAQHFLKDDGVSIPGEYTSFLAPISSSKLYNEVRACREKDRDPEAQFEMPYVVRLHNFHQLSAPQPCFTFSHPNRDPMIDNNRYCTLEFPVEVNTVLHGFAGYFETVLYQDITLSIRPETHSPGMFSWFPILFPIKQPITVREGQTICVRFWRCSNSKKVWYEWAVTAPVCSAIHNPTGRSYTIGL
Sequence (Q9BQA1 whole entry partner): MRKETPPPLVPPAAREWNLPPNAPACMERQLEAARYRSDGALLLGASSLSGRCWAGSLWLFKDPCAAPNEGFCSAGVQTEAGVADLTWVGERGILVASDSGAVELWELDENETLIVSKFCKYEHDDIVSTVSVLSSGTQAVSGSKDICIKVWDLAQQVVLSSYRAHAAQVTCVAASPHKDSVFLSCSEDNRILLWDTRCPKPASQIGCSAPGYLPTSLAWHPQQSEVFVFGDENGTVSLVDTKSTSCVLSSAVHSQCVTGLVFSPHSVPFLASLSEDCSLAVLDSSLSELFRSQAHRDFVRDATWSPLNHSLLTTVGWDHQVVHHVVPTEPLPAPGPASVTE
Assay: In vitro assay 1b: PRMT5-MEP50 high throughput mass spectrometer assay (SAH formation), 1.25 nM enzyme
Format: biochemical
Settings: 1.25 nM enzyme, 1 μM SAM, 0.3 μM H2A, 30° C., 120 min; averaged values; read-out: pIC50 Assay 1b (converted)
The following molecules are listed with their measured IC50 values.
test_readout: IC50 (nM)

[[record]]
smiles_entry = "Nc1ncnc2c1ccn2[C@@H]1C[C@H](CCCc2ccc3cccnc3c2)[C@@H](O)[C@H]1O"
comparison_symbol = "="
result_number = 1580

[[record]]
smiles_entry = "Nc1ncnc2c1ccn2[C@@H]1C[C@H](CCCc2ccncc2)[C@@H](O)[C@H]1O"
comparison_symbol = ">"
result_number = 2510

[[record]]
smiles_entry = "Nc1ncnc2c1ccn2[C@@H]1C[C@H](CCCCc2ccc3cccnc3c2)[C@@H](O)[C@H]1O"
comparison_symbol = "="
result_number = 251

[[record]]
smiles_entry = "Nc1ncnc2c1ccn2[C@@H]1C[C@H](CCc2cn[nH]c2)[C@@H](O)[C@H]1O"
comparison_symbol = "="
result_number = 1260

[[record]]
smiles_entry = "Cc1cnc2cc(CC[C@H]3C[C@@H](n4ccc5c(N)ncnc54)[C@H](O)[C@@H]3O)c(Cl)cn12"
comparison_symbol = "="
result_number = 0.158

[[record]]
smiles_entry = "Nc1cccc(CCCC[C@H]2C[C@@H](n3ccc4c(N)ncnc43)[C@H](O)[C@@H]2O)n1"
comparison_symbol = "="
result_number = 0.398

[[record]]
smiles_entry = "Nc1ncnc2c1ccn2[C@@H]1C[C@H](CCc2cnc3c(c2)CCN3)[C@@H](O)[C@H]1O"
comparison_symbol = "="
result_number = 25.1

